# assayed target: the molecule itself
# assay method text: AUC
endpoint name: Kd (µM)
Report the value in µM with no unit label.

protein="mouse nectin-2 ectodomain (D1-D3) (domain or fragment, natively glycosylated) QDVRVRVLPEVRGRLGGTVELPCHLLPPTTERVSQVTWQRLDGTVVAAFHPSFGVDFPNSQFSKDRLSFVRARPETNADLRDATLAFRGLRVEDEGNYTCEFATFPNGTRRGVTWLRVIAQPENHAEAQEVTIGPQSVAVARCVSTGGRPPARITWISSLGGEAKDTQEPGIQAGTVTIISRYSLVPVGRADGVKVTCRVEHESFEEPILLPVTLSVRYPPEVSISGYDDNWYLGRSEAILTCDVRSNPEPTDYDWSTTSGVFPASAVAQGSQLLVHSVDRMVNTTFICTATNAVGTGRAEQVILVRESP" units_symbol=µM reported_measurement=1.09

Query: Kd lookup needed for human nectin-1 ectodomain (D1-D3) F129D (domain or fragment, natively glycosylated) QVVQVNDSMYGFIGTDVVLHCSFANPLPSVKITQVTWQKSTNGSKQNVAIYNPSMGVSVLAPYRERVEFLRPSFTDGTIRLSRLELEDEGVYICEFATDPTGNRESQLNLTVMAKPTNWIEGTQAVLRAKKGQDDKVLVATCTSANGKPPSVVSWETRLKGEAEYQEIRNPNGTVTVISRYRLVPSREAHQQSLACIVNYHMDRFKESLTLNVQYEPEVTIEGFDGNWYLQRMDVKLTCKADANPPATEYHWTTLNGSLPKGVEAQNRTLFFKGPINYSLAGTYICEATNPIGTRSGQVEVNITEFP , thanks.
Response: 820
